Cited source for all entries: ChEMBL document CHEMBL5375963

Answer each item with its documented pKd.
target: WD repeat-containing protein 91 (Homo sapiens); experiment: Binding affinity to C-terminal His6-tagged truncated WDR91 (unknown origin) (P392 to A747 residues) expressed in baculovirus-infected Sf9 cells assessed as dissociation constant incubated for 72 to 96 hrs by SPR analysis
Sequence (A4D1P6 whole entry, the tested form may be a part): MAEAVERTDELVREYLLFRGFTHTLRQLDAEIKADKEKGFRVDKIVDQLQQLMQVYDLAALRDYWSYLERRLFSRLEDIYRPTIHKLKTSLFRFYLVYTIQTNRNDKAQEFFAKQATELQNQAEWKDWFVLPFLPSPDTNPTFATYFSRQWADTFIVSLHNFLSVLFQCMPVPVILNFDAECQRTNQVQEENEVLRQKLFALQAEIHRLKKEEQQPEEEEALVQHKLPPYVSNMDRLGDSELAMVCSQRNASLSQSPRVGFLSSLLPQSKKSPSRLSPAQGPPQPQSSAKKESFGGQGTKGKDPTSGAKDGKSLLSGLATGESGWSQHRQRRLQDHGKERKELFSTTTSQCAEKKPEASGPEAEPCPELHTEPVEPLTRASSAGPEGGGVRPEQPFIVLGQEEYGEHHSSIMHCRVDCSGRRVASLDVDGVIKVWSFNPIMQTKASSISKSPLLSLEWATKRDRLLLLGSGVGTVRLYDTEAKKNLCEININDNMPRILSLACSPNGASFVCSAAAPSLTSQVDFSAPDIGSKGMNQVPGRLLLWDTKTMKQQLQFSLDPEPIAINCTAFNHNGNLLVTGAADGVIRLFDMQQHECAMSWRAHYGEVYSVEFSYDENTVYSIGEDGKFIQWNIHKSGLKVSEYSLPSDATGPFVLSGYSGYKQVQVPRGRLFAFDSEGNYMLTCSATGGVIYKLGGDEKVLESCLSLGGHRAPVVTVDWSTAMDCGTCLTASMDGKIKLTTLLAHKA
One number for each entry, as −log10 of the molar value.

COMPOUND: C=CC(=O)N1CCCc2c(C(=O)NC3(c4ccc(Cl)cc4)COC3)cccc21
TARGET: WD repeat-containing protein 91 (Homo sapiens)
pKd: 4.44
--
COMPOUND: NC(=O)C1CCCN(c2ccc(C(=O)NC(CCO)c3ccc(Cl)cc3)cc2)C1 (centres undefined)
TARGET: WD repeat-containing protein 91 (Homo sapiens)
pKd: 4.85
--
COMPOUND: O=C1Cc2c(cccc2C(=O)NC2(c3ccc(Cl)cc3)COC2)N1
TARGET: WD repeat-containing protein 91 (Homo sapiens)
pKd: 4.66

Shift focus to the following entry.
Look at this compound and give its reported pKd. "CC(=O)NCc1ccc(C(=O)NC2(c3ccc(Cl)cc3)COC2)cc1"
4.01
